system: Mycobacterium tuberculosis; test: Antimycobacterial activity against Mycobacterium tuberculosis; assay type: functional
recorded endpoint: MIC (µM)

{"compound": "CSc1ccc2c(c1)N(CCC1CCCCN1C)c1ccccc1S2 (stereo not given) [THIORIDAZINE]", "recorded endpoint": "MIC", "value": 19.6}
{"compound": "CC(=O)Oc1ccccc1C(=O)Nc1ncc([N+](=O)[O-])s1 [NITAZOXANIDE]", "recorded endpoint": "MIC", "value": 33.2}
{"compound": "O[C@@H](c1cc(C(F)(F)F)nc2c(C(F)(F)F)cccc12)[C@H]1CCCCN1 [(S,R)-MEFLOQUINE]", "recorded endpoint": "MIC", "value": 10}
{"compound": "CN(C)[C@@H]1C(O)=C(C(=O)NCNCCCC[C@H](N)C(=O)O)C(=O)[C@@]2(O)C(O)=C3C(=O)c4c(O)cccc4[C@@](C)(O)[C@H]3C[C@@H]12 [LYMECYCLINE]", "recorded endpoint": "MIC", "value": 166}
{"compound": "COc1c(N2C[C@@H]3CCCN[C@@H]3C2)c(F)cc2c(=O)c(C(=O)O)cn(C3CC3)c12 [MOXIFLOXACIN]", "recorded endpoint": "MIC", "value": 1.1}

---

test system: Mycobacterium tuberculosis; assay: Antimycobacterial activity against Mycobacterium tuberculosis; type: functional
Examples of compounds with documented MIC follow.

{"compound": "CC(=O)NC[C@H]1CN(c2ccc(N3CCSCC3)c(F)c2)C(=O)O1", "MIC (ng/mL)": 62}
{"compound": "O=c1nc(N2CCN(CC3CCCCC3)CC2)sc2c([N+](=O)[O-])cc(C(F)(F)F)cc12", "MIC (ng/mL)": 0.19}
{"compound": "C[C@H]1COC2(CCN(c3nc(=O)c4cc(C(F)(F)F)cc([N+](=O)[O-])c4s3)CC2)O1", "MIC (ng/mL)": 1}
{"compound": "CC(C)=CCC/C(C)=C/CNCCNC1C2CC3CC(C2)CC1C3 (stereo not given)", "MIC (ng/mL)": 780}
{"compound": "CCc1nc2ccc(Cl)cn2c1C(=O)NCc1ccc(N2CCC(c3ccc(OC(F)(F)F)cc3)CC2)cc1", "MIC (ng/mL)": 8}
